// data source = PubChem BioAssay AID1963433

- Test system: 772245-204-R-J1-PDC complex spheroid growth;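 also: compound exposure lasted seven days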
- METHOD NOTES: Anticancer human tumor 772245-204-R-J1-PDC patient-derived rhabdomyosarcoma cell line growth inhibition [Asc]
- CONDITION NOTES: curve of first compound; second compound 0.316 µM
- Description: Multicellular complex tumor spheroid response to apoptosis pathway targeting inhibitors Alrizomadlin, Pelcitoclax, and Dasminapant in combination with a variety of drugs and investigational agents in selected tumor cell lines […] Compounds. […] If the clinical Cmax for an agent had not been determined, the highest concentration tested was 10 microM. […]
pIC50: −log10 of the molar value.
MEASURED QUANTITY: pIC50

{"columns": ["COMPOUND", "pIC50"],
 "data": [
  ["NC1CCC(NC2CC2c2ccccc2)CC1 (configuration not stated) + CNC(C)C(=O)NC1CN(S(=O)(=O)c2cccc(S(=O)(=O)N3CCC4CCC(C(=O)NC(c5ccccc5)c5ccccc5)N4C(=O)C(NC(=O)C(C)NC)C3)c2)CCC2CCC(C(=O)NC(c3ccccc3)c3ccccc3)N2C1=O", "< 7.00"]
]}

In: Tell me the measured pIC50 of O=C(c1cc(Cc2n[nH]c(=O)c3ccccc23)ccc1F)N1CCN(C(=O)C2CC2)CC1 + CNC(C)C(=O)NC1CN(S(=O)(=O)c2cccc(S(=O)(=O)N3CCC4CCC(C(=O)NC(c5ccccc5)c5ccccc5)N4C(=O)C(NC(=O)C(C)NC)C3)c2)CCC2CCC(C(=O)NC(c3ccccc3)c3ccccc3)N2C1=O , please.
Out: < 5.00
